tested on: MOLT-4 leukemia; test: NCI tumour cell line growth inhibition, 48 h; in the data active = GI50 below about 0.43 µM; inactive = the rest
Assign a class; possible classes are active, inactive

Query: Which result was noted for this compound in the test: c1ccc(OCCC[P+](c2ccccc2)(c2ccccc2)c2ccccc2)cc1
Result: inactive

Query: Fill in: this test's call for COc1ccccc1C1C(C#N)=C(N)Oc2n[nH]c(C)c21 (configuration not stated) is ___
Result: inactive

Query: Could you please tell me the result logged for Cc1c(C#N)cccc1[C@@H](C)Nc1nnc(C)c2cnc(N3CCOCC3)cc12 in this assay?
Result: inactive

Query: Which outcome was assigned to CSc1nc2nc3c(nc2c(=O)n1C)C(=O)c1ccccc1C3=O in this test?
Result: active

Query: Identify the outcome logged in this assay for the compound shown: CC(=O)OC12C=C(C)C(C(C)C1)C1C(=O)N(CCN3CCCCC3)C(=O)C12 (configuration not stated)
Result: inactive

Query: How was O=C(Nc1ccccc1I(=O)=O)C1CCCCC1 classified in this test?
Result: inactive

Query: What did the test return for COc1ccc(-c2ccc(/C=N/n3c(COc4ccccc4Cl)nn(CN4CCOCC4)c3=S)o2)c([N+](=O)[O-])c1 ?
Result: inactive

Query: // return assay outcome for COc1cc(OC)cc(C2C3=C(COC3=O)Nc3cc(OC)ccc32)c1 (configuration not stated)
Result: active

Query: Which outcome did this test record for the compound O=C(NCC(F)(F)F)Nc1cccc(-c2cnc3cc(-c4ccc(F)cc4)ccn23)c1 ?
Result: inactive

Query: Check the results log: what was the call for CC(C)N(Cc1ccc(CN(C(=O)CCl)C(C)C)cc1)C(=O)CCl ?
Result: inactive

Query: Tell me the recorded outcome of this test for N#CC1=C(N)Oc2c(ccc3ccccc23)C1c1cc(=O)oc2ccc(Cl)cc12 (configuration not stated) .
Result: inactive

Query: Test call, this compound: COc1ccccc1S(=O)(=O)Nc1ccc2c3c(cc(CCC(=O)NCCCCNc4cccc5c4C(=O)N(C4CCC(=O)NC4=O)C5=O)cc13)C(=O)N2C (configuration not stated)
Result: active

---

tested on: A498 renal; test: NCI tumour cell line growth inhibition, 48 h
Quick rule: TGI of at least 6 µM means yes (1), below that means no (0).

MOLECULE | LABEL
[N-]=[N+]=NCC(O)Cn1cnc2c(NC(=O)c3ccccc3)ncnc21 (stereo unspecified) | yes (1)
CCOc1cc2c(cc1O)C(O)C[C@@H]1[C@@H]2CC[C@]2(C)[C@@H](O)CC[C@@H]12 (stereo partly specified) | no (0)
CS(=O)(=O)Nc1cccc(-c2ccc3ncnc(Nc4ccc(F)c(Cl)c4)c3c2)c1 | no (0)
O=C1/C(=C/c2ccc(F)cc2)CN(C(=O)CCN2CCC(=NO)CC2)C/C1=C\c1ccc(F)cc1 | no (0)
O=C(NC(=O)c1c(Cl)nc2sccn12)Nc1ccc(Cl)cc1 | yes (1)

Query: Is TGI at least 6 µM? Consider COc1cc(OC)cc(C2C3=C(COC3=O)Nc3cc(OC)ccc32)c1 (stereo unspecified)
Result: no (0)

Query: TGI >= 6 µM for ClCc1ccccc1Cn1cnc2ncnc(Cl)c21 ?
Result: yes (1)

Query: For this molecule, is measured TGI 6 µM or higher? COC(NC(=O)Nc1ccccc1C)(C(F)(F)F)C(F)(F)F
Result: yes (1)

Query: Does the molecule CCOC(=O)/C(=C/c1cccc(Cl)c1)N(CC)CC have recorded TGI that is 6 µM or more?
Result: yes (1)

Query: Check this molecule for TGI at or above 6 µM: N#Cc1ccccc1NC(=O)C(=O)C1NC(=S)NC1=O (stereo unspecified)
Result: yes (1)
